Measured AC50 accompanies every entry in the list below.
biological target: 3',5'-cyclic-AMP phosphodiesterase 4D (Homo sapiens); assay type: functional; further: assay procedure not described here
Sequence (Q08499 whole entry): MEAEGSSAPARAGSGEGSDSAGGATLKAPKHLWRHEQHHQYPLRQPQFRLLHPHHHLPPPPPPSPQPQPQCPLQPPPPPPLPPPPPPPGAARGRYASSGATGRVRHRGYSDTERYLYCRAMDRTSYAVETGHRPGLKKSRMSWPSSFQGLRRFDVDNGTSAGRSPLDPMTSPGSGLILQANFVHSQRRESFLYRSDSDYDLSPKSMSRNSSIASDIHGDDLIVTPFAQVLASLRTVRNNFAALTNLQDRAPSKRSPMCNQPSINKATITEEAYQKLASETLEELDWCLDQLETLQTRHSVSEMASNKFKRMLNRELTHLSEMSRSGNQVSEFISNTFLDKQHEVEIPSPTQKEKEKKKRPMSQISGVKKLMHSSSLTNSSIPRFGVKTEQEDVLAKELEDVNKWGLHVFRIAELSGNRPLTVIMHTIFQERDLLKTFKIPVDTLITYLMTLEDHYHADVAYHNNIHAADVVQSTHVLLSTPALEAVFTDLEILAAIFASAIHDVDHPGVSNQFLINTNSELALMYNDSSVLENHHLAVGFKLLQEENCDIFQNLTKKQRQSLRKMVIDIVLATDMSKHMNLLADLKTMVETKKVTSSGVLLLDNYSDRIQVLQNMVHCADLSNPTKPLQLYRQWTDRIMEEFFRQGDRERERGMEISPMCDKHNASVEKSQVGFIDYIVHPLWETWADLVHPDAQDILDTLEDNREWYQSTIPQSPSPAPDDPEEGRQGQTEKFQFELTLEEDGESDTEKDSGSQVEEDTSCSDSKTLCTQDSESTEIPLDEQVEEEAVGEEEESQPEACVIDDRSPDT

Record Cc1cccc(Nc2ccccc2C(=O)O)c1C has 3',5'-cyclic-AMP phosphodiesterase 4D (Homo sapiens) AC50 equal to > 30 µM

Record CNS(=O)(=O)Cc1ccc2[nH]cc(CCN(C)C)c2c1 has 3',5'-cyclic-AMP phosphodiesterase 4D (Homo sapiens) AC50 equal to > 30 µM

Record CCCCN1C[C@H](O)[C@@H](O)[C@H](O)[C@H]1CO has 3',5'-cyclic-AMP phosphodiesterase 4D (Homo sapiens) AC50 equal to > 30 µM

Record O=C(NCCN1CCOCC1)c1ccc(Cl)cc1 [MOCLOBEMIDE] has 3',5'-cyclic-AMP phosphodiesterase 4D (Homo sapiens) AC50 equal to > 30 µM

Record C[C@H](CSC(=O)c1ccccc1)C(=O)N1C[C@@H](Sc2ccccc2)C[C@H]1C(=O)O has 3',5'-cyclic-AMP phosphodiesterase 4D (Homo sapiens) AC50 equal to > 10 µM
